meta.source: patent US10980788B2

assay: Food effect on pharmacokinetics of COMPOUND 1 in healthy subjects (phase 1, open-label, randomized, two-period crossover); type: in vivo, human; settings: human, plasma, po, 500 mg, single oral dose 500 mg, fasted, n = 29, arithmetic mean
MEASURE NAME: half-life (h)
Quick reminder: number only, in h, skip the unit.

In: Item under review: N#Cc1ccnc(N2C(=O)CC[C@H]2C(=O)N(c2cncc(F)c2)[C@H](C(=O)NC2CC(F)(F)C2)c2ccccc2Cl)c1 [COMPOUND 1] . Reported half-life?
Out: 55.4

###

test: Food effect on pharmacokinetics of COMPOUND 1 in healthy subjects (phase 1, open-label, randomized, two-period crossover); type: in vivo, human; conditions: human, plasma, po, 500 mg, single oral dose 500 mg, fed (high-fat meal), n = 27, geometric mean
MEASURE NAME: Cmax (µg/mL)
Quick reminder: number only, in µg/mL, skip the unit.

In: Item under review: N#Cc1ccnc(N2C(=O)CC[C@H]2C(=O)N(c2cncc(F)c2)[C@H](C(=O)NC2CC(F)(F)C2)c2ccccc2Cl)c1 . Reported Cmax?
Out: 4.49

###

test: Food effect on pharmacokinetics of COMPOUND 1 in healthy subjects (phase 1, open-label, randomized, two-period crossover); type: in vivo, human; settings: human, plasma, po, 500 mg, single oral dose 500 mg, fasted, n = 29, geometric mean
MEASURE NAME: AUC(0-inf) (µg·h/mL)
Quick reminder: number only, in µg·h/mL, skip the unit.

In: Item under review: N#Cc1ccnc(N2C(=O)CC[C@H]2C(=O)N(c2cncc(F)c2)[C@H](C(=O)NC2CC(F)(F)C2)c2ccccc2Cl)c1 . Reported AUC(0-inf)?
Out: 143

###

assay: Food effect on pharmacokinetics of COMPOUND 1 in healthy subjects (phase 1, open-label, randomized, two-period crossover); format: in vivo, human; conditions: human, plasma, po, 500 mg, single oral dose 500 mg, fed (high-fat meal), n = 27, geometric mean
MEASURE NAME: AUC(0-t)

In: Item under review: N#Cc1ccnc(N2C(=O)CC[C@H]2C(=O)N(c2cncc(F)c2)[C@H](C(=O)NC2CC(F)(F)C2)c2ccccc2Cl)c1 . Reported AUC(0-t)?
Out: 166 µg·h/mL

###

assay: Food effect on pharmacokinetics of COMPOUND 1 in healthy subjects (phase 1, open-label, randomized, two-period crossover); format: in vivo, human; conditions: human, plasma, po, 500 mg, plasma, single oral dose 500 mg, fed (high-fat meal), n = 27, median; read-out: Tmax
MEASURE NAME: Tmax (h)
Quick reminder: number only, in h, skip the unit.

In: Item under review: N#Cc1ccnc(N2C(=O)CC[C@H]2C(=O)N(c2cncc(F)c2)[C@H](C(=O)NC2CC(F)(F)C2)c2ccccc2Cl)c1 . Reported Tmax?
Out: 3

###

test: Food effect on pharmacokinetics of COMPOUND 1 in healthy subjects (phase 1, open-label, randomized, two-period crossover); type: in vivo, human; conditions: human, plasma, po, 500 mg, plasma, single oral dose 500 mg, fasted, n = 29, median; read-out: Tmax
MEASURE NAME: Tmax (h)
Quick reminder: number only, in h, skip the unit.

In: Item under review: N#Cc1ccnc(N2C(=O)CC[C@H]2C(=O)N(c2cncc(F)c2)[C@H](C(=O)NC2CC(F)(F)C2)c2ccccc2Cl)c1 [COMPOUND 1] . Reported Tmax?
Out: 3
